# experimental-system: MAPKAPK3 (human) (UniProt Q16644)
# Sequence (Q16644 whole entry, looked up): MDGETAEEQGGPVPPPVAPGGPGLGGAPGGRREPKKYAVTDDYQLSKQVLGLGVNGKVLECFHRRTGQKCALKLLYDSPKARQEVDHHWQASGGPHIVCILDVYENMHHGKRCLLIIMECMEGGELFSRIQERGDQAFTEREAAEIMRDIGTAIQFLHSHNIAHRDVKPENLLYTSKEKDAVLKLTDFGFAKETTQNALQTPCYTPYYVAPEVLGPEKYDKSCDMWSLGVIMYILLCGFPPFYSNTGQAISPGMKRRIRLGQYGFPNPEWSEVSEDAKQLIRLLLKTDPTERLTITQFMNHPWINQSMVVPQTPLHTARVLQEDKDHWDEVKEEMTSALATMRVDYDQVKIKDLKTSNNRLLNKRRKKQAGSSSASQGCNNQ
# protocol-details: radiometric filter-binding kinase assay
# condition-description: compound 1.0 µM
measured-metric: residual activity (%)

The following compounds have reported results that may help.
{"columns": ["compound", "unit", "residual activity"],
 "data": [
  ["FC(F)(F)c1ccc(-c2ccc(Oc3cncc4sc(-c5nn[nH]n5)cc34)cc2)cc1", "%", 109],
  ["CCNc1nc(Nc2cc(F)c(C(=O)N3CCOCC3)cc2OC)ncc1C(F)(F)F", "%", 91]
]}

A = N#Cc1c(C2CCNCC2)cc(-c2c(O)cccc2OCC2CC2)nc1N
B = CNC(=O)C1[C@H]2O[C@@](C)([C@@H]1N)n1c3ccccc3c3c4c(c5c6ccccc6n2c5c31)C(=O)NC4 (stereo partly specified)
C = C=C1C(=O)OC2C1CC/C(C)=C/CCC1(C)OC21 (stereo unspecified)
Incoming: Please list these compounds in decreasing order of residual activity. Lab note: final answer is the ordered label list.
Outgoing: C, A, B
(C: 135%, A: 87%, B: 29%)

----------
# System: PRKAA1 or PRKAA2 (rat)
# protocol-details: radiometric filter-binding kinase assay
# condition-description: compound 10.0 µM; accession and sequence are those of the human protein
measured-metric: residual activity (%)

The following molecules have reported results that may help.
{"columns": ["molecule", "experimental-system", "measured-metric", "obs-value"],
 "data": [
  ["CCCCCc1ccc(/C=C/[C@H](O)[C@@H](CO)NC)cc1", "PRKAA1 or PRKAA2 (rat)", "residual activity", 94],
  ["O=C(NOC[C@H](O)CO)c1ccc(F)c(F)c1Nc1ccc(I)cc1Cl", "PRKAA1 or PRKAA2 (rat)", "residual activity", 107],
  ["NCC(=O)Nc1ccc(-n2nc(C(F)(F)F)cc2-c2ccc3c(ccc4ccccc43)c2)cc1", "PRKAA1 or PRKAA2 (rat)", "residual activity", 105],
  ["O=C(NOCC(O)CO)c1ccc(F)c(F)c1Nc1ccc(I)cc1Cl (stereo unspecified)", "PRKAA1 or PRKAA2 (rat)", "residual activity", 120],
  ["CCCC(CCC)C(=O)O", "PRKAA1 or PRKAA2 (rat)", "residual activity", 94],
  ["Cn1nc(Nc2ccc(F)cc2)c2c(N)ncnc21", "PRKAA1 or PRKAA2 (rat)", "residual activity", 107]
]}

I = NC(=O)c1cc(-c2ccnc(NC3CCCCC3)c2)nc(N2CCNCC2)c1
II = CNc1nc(-c2ccc3c(N)n[nH]c3c2)cc(N2C[C@@H](C(=O)NC3CCCCC3)CC[C@H]2C)n1
Incoming: Lab note: record which item had the higher residual activity, I or II . The response must carry the label of the picked entry.
Outgoing: II
(II: 44%, I: 20%)

1 = Oc1ccc(/C=C/c2cc(O)cc(O)c2)cc1
2 = NC(=O)Nc1ccc2c(c1)/C(=C/c1cc(-c3cccnc3)c[nH]1)C(=O)N2
Incoming: // pick min by residual activity: 1 , 2 The response must carry the label of the picked entry.
Outgoing: 2

A = CC1=C(CO)C(=O)O[C@@H]([C@@H](C)[C@H]2CC[C@H]3[C@@H]4C[C@H]5O[C@]56[C@@H](O)C=CC(=O)[C@]6(C)C4CC[C@]23C)C1 (stereo partly specified)
B = NC(=O)c1ccc(-c2ccc(Oc3cncc4sc(-c5nn[nH]n5)cc34)cc2)cc1
C = O=C(O)c1ccc(-c2c[nH]c3ncc(-c4ccccc4)cc23)cc1C1CCCC1
D = c1ccc2c(-c3cnn4cc(-c5ccc(N6CCNCC6)cc5)cnc34)ccnc2c1
Incoming: Ordering: ascending residual activity. Lab note: final answer is the ordered label list.
Outgoing: C, D, B, A

A = CCc1cncnc1N1CCN(Cc2nc3cc(C(F)(F)F)ccc3[nH]2)CC1
B = NC(=O)c1cc2c(-c3cccc(-c4ccccc4)c3)cnc(N)c2s1
Incoming: Lab note: record which item had the higher residual activity, A or B . The response must carry the label of the picked entry.
Outgoing: B
